Target: T1, human amylin receptor (amylin 3(a) receptor: human calcitonin receptor with RAMP-3) (human, UniProt P30988 25-474; O60896 24-148, limits assumed)
T1 construct: whole, on cells; Whole cells in the luciferase assay (Assay II a); also called hAmylin-R; hAmylinR
T1 sequence (looked up) 1: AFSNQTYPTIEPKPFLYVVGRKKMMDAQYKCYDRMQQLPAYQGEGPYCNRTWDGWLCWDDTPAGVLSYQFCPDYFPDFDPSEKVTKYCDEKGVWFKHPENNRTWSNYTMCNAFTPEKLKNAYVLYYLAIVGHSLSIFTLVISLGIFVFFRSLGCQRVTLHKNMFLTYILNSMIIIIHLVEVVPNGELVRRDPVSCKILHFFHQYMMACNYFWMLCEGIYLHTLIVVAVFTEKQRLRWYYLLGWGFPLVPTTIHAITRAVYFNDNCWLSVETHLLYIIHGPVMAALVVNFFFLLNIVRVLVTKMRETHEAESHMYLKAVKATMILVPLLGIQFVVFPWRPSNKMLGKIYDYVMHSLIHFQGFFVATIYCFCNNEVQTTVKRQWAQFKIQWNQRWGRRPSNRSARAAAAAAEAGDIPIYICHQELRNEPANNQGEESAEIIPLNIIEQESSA
T1 sequence (looked up) 2: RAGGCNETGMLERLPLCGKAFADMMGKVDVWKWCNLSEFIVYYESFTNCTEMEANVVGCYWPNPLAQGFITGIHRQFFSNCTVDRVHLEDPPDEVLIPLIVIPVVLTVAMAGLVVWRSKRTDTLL
Assay: SPA competition binding on membranes of BHK cells with human calcitonin receptor + RAMP-3; displacement of 125I-rat amylin (Assay V)
pIC50: −log10 of the molar value. Numbered stars: 1 amine (or outer) side, 2 acyl side, 3 side chain; on linkers, the order of the positions; unused ones are H or OH. Bridge positions count the residues as written; N and C are the ends. * marks the point of attachment. C20 diacid = O=C(O)CCCCCCCCCCCCCCCCCCC(=O)*; γGlu = O=C(O)[C@H](CCC(=O)[*:2])N[*:1]
pIC50 for assorted binders
Measurement kind: pIC50

>>> df
                                     binder  measurement_kind  numeric_value
0  {C20 diacid-γGlu}-KCNTATCATQRLAEFLRHSSPNFGAIPSSTNVGSNTP-NH2 (disulfide 2-7, also called compound 8)             pIC50          10.14
1  {C20 diacid-γGlu}-GRCNTATCATQRLAHFLRHSSPNFGAIPSSTNVGPNTY-NH2 (disulfide 3-8 (inferred))             pIC50           9.66
2  {C20 diacid-γGlu}-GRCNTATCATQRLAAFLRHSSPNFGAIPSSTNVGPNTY-NH2 (disulfide 3-8 (inferred))             pIC50           9.94
3  {C20 diacid-γGlu}-GRCNTATCATQRLAAFLRHSSPNFGAIPSSTNVGHNTY-NH2 (disulfide 3-8 (inferred))             pIC50           9.37

Data credit: patent US20140087995A1
